Parameter AC40: see the listing below.
Molecular target: Endoplasmic reticulum aminopeptidase 1 (Homo sapiens)
Test: ERAP1 aminopeptidase activity change, dose response, biochemical, fluorescence, cherry-pick (AID 743317)
Conditions: ERAP1 enzyme, Leu-AMC fluorescence, 60 min
Results filed as inconclusive are left out.

• COc1ccc(CN(C)C[C@@H]2OCCCC[C@@H](C)Oc3ccc(NS(=O)(=O)c4cccs4)cc3C(=O)N([C@@H](C)CO)C[C@H]2C)cc1 = 577 nM

query: Quote AC40 reported for `COc1ccc(CN(C)C[C@H]2OCCCC[C@@H](C)Oc3ccc(NS(=O)(=O)c4cccs4)cc3C(=O)N([C@@H](C)CO)C[C@H]2C)cc1` please.
result: 1110 nM

query: Query AC40 for `CCCN(C)C[C@@H]1OCCCC[C@@H](C)Oc2ccc(NS(=O)(=O)c3ccc(OC)cc3)cc2C(=O)N([C@H](C)CO)C[C@@H]1C`
result: 812 nM

---

Target: Endoplasmic reticulum aminopeptidase 1 (Homo sapiens) (UniProt Q9NZ08)
Sequence (Q9NZ08 whole entry, looked up): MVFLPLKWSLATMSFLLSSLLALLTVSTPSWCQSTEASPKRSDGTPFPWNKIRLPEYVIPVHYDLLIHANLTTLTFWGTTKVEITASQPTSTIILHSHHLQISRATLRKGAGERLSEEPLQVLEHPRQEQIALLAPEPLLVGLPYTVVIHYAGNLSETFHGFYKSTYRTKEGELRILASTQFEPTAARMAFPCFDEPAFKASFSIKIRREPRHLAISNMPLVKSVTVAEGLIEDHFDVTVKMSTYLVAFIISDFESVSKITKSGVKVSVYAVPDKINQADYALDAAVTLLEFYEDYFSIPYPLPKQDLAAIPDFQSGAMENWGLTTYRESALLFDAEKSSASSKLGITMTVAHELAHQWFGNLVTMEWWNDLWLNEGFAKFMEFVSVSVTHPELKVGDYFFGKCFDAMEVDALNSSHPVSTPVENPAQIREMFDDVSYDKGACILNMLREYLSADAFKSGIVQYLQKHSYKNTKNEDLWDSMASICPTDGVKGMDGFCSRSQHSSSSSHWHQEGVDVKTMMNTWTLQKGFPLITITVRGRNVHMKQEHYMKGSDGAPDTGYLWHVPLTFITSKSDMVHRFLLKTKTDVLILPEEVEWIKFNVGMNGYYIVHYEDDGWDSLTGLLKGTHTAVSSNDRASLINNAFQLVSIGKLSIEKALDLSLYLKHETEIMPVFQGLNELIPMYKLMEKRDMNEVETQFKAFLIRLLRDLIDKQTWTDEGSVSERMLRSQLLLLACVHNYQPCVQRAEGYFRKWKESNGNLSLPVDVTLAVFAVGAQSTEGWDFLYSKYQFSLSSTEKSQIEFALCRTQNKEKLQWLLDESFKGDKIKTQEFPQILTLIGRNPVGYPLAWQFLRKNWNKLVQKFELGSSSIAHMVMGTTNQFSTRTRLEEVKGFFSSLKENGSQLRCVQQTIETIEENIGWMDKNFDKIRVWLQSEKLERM
Test: ERAP1 aminopeptidase activity change, dose response, biochemical, fluorescence, cherry-pick (AID 743317)
Settings: ERAP1 enzyme, Leu-AMC fluorescence, 60 min
Records with an inconclusive call do not appear.
Known AC40 of a selection of molecules

A selection of reference data follows.
• C[C@@H]1CCCCO[C@@H](CN(C)C(=O)CCC(F)(F)F)[C@@H](C)CN([C@@H](C)CO)C(=O)c2cc(NS(=O)(=O)c3ccc(Cl)cc3)ccc2O1 = 191 nM
• Cc1ccccc1-c1ccc2c(c1)O[C@@H](CN(C)Cc1ccc(C(=O)O)cc1)[C@@H](C)CN([C@H](C)CO)S2(=O)=O = 4290 nM
• C[C@H]1CN([C@@H](C)CO)C(=O)c2cccc(NC(=O)Nc3ccc4c(c3)OCO4)c2O[C@@H]1CN(C)CC1CC1 = 770 nM
• CCCN(C)C[C@@H]1OCCCC[C@@H](C)Oc2ccc(NS(=O)(=O)c3ccccc3)cc2C(=O)N([C@H](C)CO)C[C@@H]1C = 1040 nM
• O=C(C[C@H]1CC[C@@H]2[C@H](COC[C@@H](O)CN2C(=O)Nc2cccc(Cl)c2)O1)N1CCCCC1 = 812 nM
• O=C(C[C@@H]1CC[C@@H]2[C@H](COC[C@H](O)CN2C(=O)Nc2cccc(Cl)c2)O1)N1CCCCC1 = 364 nM

query: State its AC40 for this molecule: `COc1ccc(CN(C)C[C@@H]2OCCCC[C@@H](C)Oc3ccc(NS(=O)(=O)c4cccs4)cc3C(=O)N([C@H](C)CO)C[C@H]2C)cc1`
result: 1150 nM

---

Molecular target: Endoplasmic reticulum aminopeptidase 1 (Homo sapiens) (UniProt Q9NZ08)
Test: ERAP1 aminopeptidase activity change, dose response, biochemical, fluorescence, cherry-pick (AID 743317)
Conditions: ERAP1 enzyme, Leu-AMC fluorescence, 60 min
Inconclusive results are not listed.
readout.kind: AC40

Example entries begin here.
- C[C@H]1CN([C@@H](C)CO)C(=O)c2cccc(NC(=O)Nc3ccc(C(F)(F)F)cc3)c2O[C@@H]1CN(C)CC1CC1: 541 nM
- C[C@H](CO)N1C[C@H](C)[C@H](CN(C)CC2CCCCC2)Oc2c(NC(=O)Nc3ccc4c(c3)OCO4)cccc2C1=O: 2550 nM
- CCn1cc(CN2CCCC(C(=O)Nc3ccc(-c4nc5ccccc5[nH]4)cc3)C2)c(C)n1 (configuration not stated): 3500 nM
- C[C@@H]1CCCCO[C@@H](CN(C)Cc2ccc(C(=O)O)cc2)[C@H](C)CN([C@@H](C)CO)C(=O)c2cc(NS(=O)(=O)c3ccc(Cl)cc3)ccc2O1: 3660 nM
- N#Cc1c(N)n(CCNC(=O)c2ccccc2)c2nc3ccccc3nc12: 10000 nM
- O=C(O)c1cccc(NC(=O)c2ccccc2NC(=O)c2cccc([N+](=O)[O-])c2)c1: 967 nM

Alright, here's another compound for you.
query: Using the record for `COc1ccc(CN(C)C[C@@H]2OCCCC[C@@H](C)Oc3ccc(NS(=O)(=O)c4cccs4)cc3C(=O)N([C@H](C)CO)C[C@@H]2C)cc1` , state its measured AC40.
result: 161 nM

---

Here the recorded activity increase (activation) is given for each entry.
Biological target: Endoplasmic reticulum aminopeptidase 1 (Homo sapiens) (UniProt Q9NZ08)
Test: ERAP1 aminopeptidase activity change, dose response, biochemical, fluorescence, cherry-pick (AID 743317)
Settings: ERAP1 enzyme, Leu-AMC fluorescence, 60 min; at 11 µM (top of the series)
Inconclusive results are not listed. Calls of active or inactive are those of the source.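 Rule for the calls: active = fitted curve reaches 40% activation at or below the top valid dose, and every replicate test is called active; inconclusive = replicate tests disagree, some active and some inactive; inactive = all replicate tests inactive, including activity in the wrong direction.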

- Cc1c(O)ccc2cc(S(=O)(=O)c3ccccc3)c(=O)oc12: -94% (inactive)
- CCOC(=O)C[n+]1ccc2c([nH]c3ccccc32)c1C: -38.3% (inactive)
- O=C(CSc1cn[nH]n1)Nc1cccc(C(=O)O)c1: -63.3% (inactive)
- Cc1cc(=O)oc2c(CN3CCCCC3)c(O)ccc12: -81.1% (inactive)
- CCN(CC)Cc1c(O)c(Cl)cc2c(C)cc(=O)oc12: -83.4% (inactive)

query: Recall and state the measured activity increase (activation) for `C/C(=N\NC(=O)CC#N)c1cc2ccc(O)cc2oc1=O` .
result: -67.1% (inactive)

---

// reported activity increase (activation) per item
Biological target: Endoplasmic reticulum aminopeptidase 1 (Homo sapiens)
Assay: ERAP1 aminopeptidase activity change, dose response, biochemical, fluorescence, cherry-pick (AID 743317)
Conditions: ERAP1 enzyme, Leu-AMC fluorescence, 60 min; at 11 µM (top of the series)
Results filed as inconclusive are left out. Active and inactive are the calls of the source.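 Rule for the calls: active = fitted curve reaches 40% activation at or below the top valid dose, and every replicate test is called active; inconclusive = replicate tests disagree, some active and some inactive; inactive = all replicate tests inactive, including activity in the wrong direction.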

Please review the entries below; each comes with its answer.
• CCc1c(C)c2cc(Cl)c(O)c(CN(CC)CC)c2oc1=O = -62.3% (inactive)
• CCCCc1cc(=O)oc2cc(O)ccc12 = -62.4% (inactive)
• COc1cc2ccc(=O)oc2cc1O = -97.7% (inactive)
• CCc1c(C)c2cc(Cl)c(O)c(CN(C)C)c2oc1=O = -92.5% (inactive)
• N#Cc1c(N2CCNCC2)nc(-c2ccco2)c2c1CCCC2 = -51.7% (inactive)
• CCN(CCCl)c1cc(CN(C)C)cc(NC(=O)c2ccc(C(=O)Nc3cc(CN(C)C)cc(N(CC)CCCl)c3)cc2)c1 = -76% (inactive)
• Cc1c(C)c2ccc(O)c(CN3CCN(C)CC3)c2oc1=O = -52.8% (inactive)
• Cc1cc(=O)oc2c(CN3CCN(CCO)CC3)c(O)ccc12 = -61.9% (inactive)

query: Note down activity increase (activation) recorded for `CN1c2ccc(-c3ccc(C#N)cc3)cc2[C@@H]2[C@@H](CCN2C(=O)CC2CC2)[C@@H]1CO`
result: -8.63% (inactive)

---

In this section, each of the molecules is paired with its reported activity increase (activation).
Target: Endoplasmic reticulum aminopeptidase 1 (Homo sapiens)
Test: ERAP1 aminopeptidase activity change, dose response, biochemical, fluorescence, cherry-pick (AID 743317)
Details: ERAP1 enzyme, Leu-AMC fluorescence, 60 min; at 11 µM (top of the series)
Inconclusive results are not listed. Calls of active or inactive are those of the source.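 Rule for the calls: active = fitted curve reaches 40% activation at or below the top valid dose, and every replicate test is called active; inconclusive = replicate tests disagree, some active and some inactive; inactive = all replicate tests inactive, including activity in the wrong direction.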

- Cc1cc(=O)oc2c(CN3CCCC3)c(O)c(Cl)cc12: -73.8% (inactive)

query: For Endoplasmic reticulum aminopeptidase 1 (Homo sapiens), give the measured activity increase (activation) of the entry `C[C@@H]1CN([C@@H](C)CO)C(=O)c2cccc(NC(=O)Nc3ccc(C(F)(F)F)cc3)c2O[C@@H]1CN(C)C`
result: 30.6% (inactive)

query: Write down measured activity increase (activation) (Endoplasmic reticulum aminopeptidase 1 (Homo sapiens)) for this molecule. `CCCc1cc(=O)oc2c(CN(CC)CC)c(O)c(Cl)cc12`
result: -58.6% (inactive)

query: State recorded activity increase (activation) with Endoplasmic reticulum aminopeptidase 1 (Homo sapiens), entry CN1CCCC1CCNc1ccc2c(=O)c3ccccc3oc2c1 (stereo not drawn) , no comment.
result: -115% (inactive)

query: Recall the reported activity increase (activation) of `O=c1oc2c(CN3CCN(CCO)CC3)c(O)ccc2cc1-c1ccccn1` when tested on Endoplasmic reticulum aminopeptidase 1 (Homo sapiens).
result: -80.1% (inactive)

query: Look up Endoplasmic reticulum aminopeptidase 1 (Homo sapiens) data: activity increase (activation) of `Cc1c(Cc2ccccc2)c(=O)oc2cc(O)ccc12` , then report it.
result: -39.3% (inactive)

query: Tell me its activity increase (activation) on Endoplasmic reticulum aminopeptidase 1 (Homo sapiens): `O=c1ccc2cc(O)c(O)cc2o1`
result: -53.9% (inactive)

query: State the measured activity increase (activation) (Endoplasmic reticulum aminopeptidase 1 (Homo sapiens)) of `CC(C)[C@@H](C(=O)N[C@@H](CCc1ccc(O)cc1)C(=O)O)N(C)C(=O)[C@H](CO)NC(=O)[C@@H](O)[C@H](N)CCCCCCCCl`
result: -103% (inactive)

query: Provide activity increase (activation), recorded with Endoplasmic reticulum aminopeptidase 1 (Homo sapiens), of `CC(C)(C)c1cc(N2CCOCC2)n2ncc(-c3ccccc3)c2n1`
result: -42% (inactive)

query: Name the recorded activity increase (activation) of `Cc1cc(=O)oc2c(CN3CCN(C)CC3)c(O)c(Cl)cc12` , assay system Endoplasmic reticulum aminopeptidase 1 (Homo sapiens).
result: -69.3% (inactive)
